All figures here come from PubChem BioAssay (Tox21).

# TEST SYSTEM: Voltage-gated inwardly rectifying potassium channel KCNH2 (Homo sapiens)
# TEST DETAILS: Human Ether-a-go-go-Related Gene (hERG) channel small molecule antagonists: fluorescence cell-based qHTS assay (AID 1671200);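 note: hERG-expressing U2OS cells given a thallium stimulus after FluxOR II dye loading; % is set by controls: 0 for no effect and ±100 for the full control effect; nearly all actives have a fitted effect of over 50% in size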
# EXPERIMENTAL CONTEXT: hERG-U2OS cells, FluxOR thallium flux fluorescence; series mostly up to 76.8 µM
Records with an inconclusive call do not appear. Calls of active or inactive are those of the source. Calls come from the whole dose curve; as a rule, active = well fitted inhibition curve with a large enough effect in the repeat runs; inconclusive = weak or mixed curves; inactive = flat fitted curve, though single readings scatter.
Write down one outcome, taken from active, inactive

## Task // param item: `O=C(O)C(F)(F)C(F)(F)C(F)(F)C(F)(F)C(F)(F)C(F)(F)C(F)(F)F` ; yields the recorded call
## Result inactive

## Task // param item: `NNC(N)=S` ; yields the recorded call
## Result inactive

## Task // param item: `CNC(=O)Oc1cccc2c1OC(C)(C)O2` ; yields the recorded call
## Result inactive

## Task // param item: `O=[N+]([O-])c1cccc2ccccc12` ; yields the recorded call
## Result inactive

## Task // param item: `CCCCCCCCOC(=O)c1ccccc1C(=O)OCCCCCCCC` ; yields the recorded call
## Result inactive

## Task // param item: O=c1oc2ccccc2c(O)c1C(CC(O)c1ccc(-c2ccc(Br)cc2)cc1)c1ccccc1 (stereo unspecified) ; yields the recorded call
## Result inactive

## Task // param item: `Oc1cc(Cl)c(Cl)cc1Cl` ; yields the recorded call
## Result inactive

## Task // param item: `O=C1C=CC(=O)C=C1` ; yields the recorded call
## Result inactive

## Task // param item: `Cc1c(COC(=O)[C@@H]2[C@H](/C=C(\Cl)C(F)(F)F)C2(C)C)cccc1-c1ccccc1` ; yields the recorded call
## Result inactive

## Task // param item: `Oc1cc(Cl)ccc1Cl` ; yields the recorded call
## Result inactive

## Task // param item: `COC(=O)c1sccc1S(=O)(=O)NC(=O)Nc1nc(C)nc(OC)n1` ; yields the recorded call
## Result inactive

## Task // param item: `CCCCCCCCCCCOC(=O)c1ccccc1C(=O)OCCCCCCCCCCC` ; yields the recorded call
## Result inactive

## Task // param item: CCC(C)c1cc([N+](=O)[O-])cc([N+](=O)[O-])c1O (stereo unspecified) ; yields the recorded call
## Result inactive

## Task // param item: `S=C1NCCN1` ; yields the recorded call
## Result inactive

----------
# TEST SYSTEM: Nuclear receptor subfamily 1 group I member 3 (Homo sapiens)
# TEST DETAILS: qHTS assay to identify small molecule agonists of the constitutive androstane receptor (CAR) signaling pathway (AID 1224839);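 note: HepG2 cells stably carrying human CAR and a CYP2B6 luciferase reporter; % is set by controls: 0 for no effect and ±100 for the full control effect; nearly all actives have a fitted effect of over 15% in size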
# EXPERIMENTAL CONTEXT: HepG2 hCAR CYP2B6-luciferase, agonist mode, 24 h; series mostly up to 92.4 µM
Inconclusive results are not listed. Calls of active or inactive are those of the source. Calls follow the shape of the dose curve; as a rule, active = well fitted activation curve with a large enough effect in the repeat runs; inconclusive = weak or mixed curves; inactive = no such curve, though single readings can be large or run the other way.
ASSAY METRIC: outcome

{"SAMPLE SMILES": "COP(=S)(OC)Oc1ccc([N+](=O)[O-])cc1", "TEST SYSTEM": "Nuclear receptor subfamily 1 group I member 3 (Homo sapiens)", "ASSAY METRIC": "outcome", "RESULT": "inactive"}
{"SAMPLE SMILES": "Nc1cccnc1", "TEST SYSTEM": "Nuclear receptor subfamily 1 group I member 3 (Homo sapiens)", "ASSAY METRIC": "outcome", "RESULT": "inactive"}
{"SAMPLE SMILES": "CCOc1cc(Oc2ccc(C(F)(F)F)cc2Cl)ccc1[N+](=O)[O-]", "TEST SYSTEM": "Nuclear receptor subfamily 1 group I member 3 (Homo sapiens)", "ASSAY METRIC": "outcome", "RESULT": "inactive"}

----------
# TEST DETAILS: qHTS assay for identifying genotoxic compounds that show differential cytotoxicity against isogenic chicken DT40 cell lines with known DNA damage response pathways - wild type cell line (AID 743012); note: % is set by controls: 0 for no effect and ±100 for the full control effect; nearly all actives have a fitted effect of over 60% in size
# EXPERIMENTAL CONTEXT: DT40 wild type chicken cells viability, CellTiter-Glo, 40 h; series mostly up to 68.4 µM
Results filed as inconclusive are left out. Calls of active or inactive are those of the source. Calls follow the shape of the dose curve; as a rule, active = well fitted cell-killing curve with a large enough effect in the repeat runs; inconclusive = weak or mixed curves, or effect the other way; inactive = no such curve, though single readings can be large or run the other way.
Write down one outcome, taken from active, inactive

Please review the entries below; each comes with its answer.
{"COMPOUND": "C=CCN(CC=C)C(=O)C(Cl)Cl", "GROUP": "inactive"}
{"COMPOUND": "CC(O)CCO (stereo not given)", "GROUP": "inactive"}

## Task // param item: `Nc1ccc(Cl)c(Cl)c1` ; yields the recorded call
## Result inactive

## Task // param item: `CC(C)(c1cc(Cl)c(O)c(Cl)c1)c1cc(Cl)c(O)c(Cl)c1` ; yields the recorded call
## Result inactive

## Task // param item: `Cc1cc(C)cc(C)c1` ; yields the recorded call
## Result inactive

## Task // param item: `COP(=O)(OC)OC` ; yields the recorded call
## Result inactive

## Task // param item: `Brc1ccc(Oc2cc(Br)c(Br)cc2Br)c(Br)c1` ; yields the recorded call
## Result inactive

## Task // param item: `CNC(=O)N(C)c1nnc(C(C)(C)C)s1` ; yields the recorded call
## Result inactive

## Task // param item: `O=S(=O)(Oc1ccc(Cl)cc1)c1ccc(Cl)cc1` ; yields the recorded call
## Result inactive

----------
# TEST SYSTEM: Thyrotropin receptor (Homo sapiens) (UniProt P16473)
# Sequence (P16473 whole entry, looked up): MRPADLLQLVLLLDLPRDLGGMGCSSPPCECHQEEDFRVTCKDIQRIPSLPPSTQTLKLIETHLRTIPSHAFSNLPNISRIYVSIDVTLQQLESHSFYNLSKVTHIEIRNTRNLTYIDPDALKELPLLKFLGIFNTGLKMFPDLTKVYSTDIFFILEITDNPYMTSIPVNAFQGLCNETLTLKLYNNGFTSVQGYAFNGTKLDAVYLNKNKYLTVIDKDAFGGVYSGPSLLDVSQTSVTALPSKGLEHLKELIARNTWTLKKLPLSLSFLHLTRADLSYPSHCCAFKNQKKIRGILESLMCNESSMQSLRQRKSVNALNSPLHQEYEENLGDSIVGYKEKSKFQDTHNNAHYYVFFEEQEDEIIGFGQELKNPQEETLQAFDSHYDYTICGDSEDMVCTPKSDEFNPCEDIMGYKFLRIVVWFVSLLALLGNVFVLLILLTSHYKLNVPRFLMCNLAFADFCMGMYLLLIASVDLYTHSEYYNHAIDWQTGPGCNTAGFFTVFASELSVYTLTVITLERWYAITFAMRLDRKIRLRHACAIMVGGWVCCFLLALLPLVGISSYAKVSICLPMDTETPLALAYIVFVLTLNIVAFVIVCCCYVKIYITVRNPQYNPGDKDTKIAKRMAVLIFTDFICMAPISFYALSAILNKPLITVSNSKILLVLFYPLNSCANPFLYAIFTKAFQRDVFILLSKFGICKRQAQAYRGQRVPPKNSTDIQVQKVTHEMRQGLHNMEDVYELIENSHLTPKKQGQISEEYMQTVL
# TEST DETAILS: qHTS assay to identify small molecule agonists of the thyroid stimulating hormone receptor (TSHR) signaling pathway (AID 1224843); note: nearly all actives have a fitted effect of over 45% in size
# EXPERIMENTAL CONTEXT: TSHR-HEK293 cells, cAMP HTRF, agonist mode, 30 min; series mostly up to 92.4 µM
Records with an inconclusive call do not appear. Calls of active or inactive are those of the source. Calls follow the shape of the full dose curve.
ASSAY METRIC: outcome

The examples below pair each entry with its known result.
{"SAMPLE SMILES": "NNC(=S)NN", "RESULT": "inactive"}
{"SAMPLE SMILES": "NC(=S)Nc1ccccc1", "RESULT": "inactive"}
{"SAMPLE SMILES": "CCCCCCCCC(=O)NCc1ccc(O)c(OC)c1", "RESULT": "inactive"}
{"SAMPLE SMILES": "CCCCCCOC(=O)c1ccccc1C(=O)OCCCCCC", "RESULT": "inactive"}
{"SAMPLE SMILES": "Oc1c(Cl)c(Cl)c(Cl)c(Cl)c1Cl", "RESULT": "inactive"}
{"SAMPLE SMILES": "Cc1ccc(N)c(N)c1", "RESULT": "inactive"}
{"SAMPLE SMILES": "NNC(N)=S", "RESULT": "inactive"}
{"SAMPLE SMILES": "CCCCCc1cc(O)cc(O)c1", "RESULT": "inactive"}
{"SAMPLE SMILES": "CCCCCCCCCCCOC(=O)c1ccccc1C(=O)OCCCCCCCCCCC", "RESULT": "inactive"}
{"SAMPLE SMILES": "Nn1cnnc1", "RESULT": "inactive"}

## Task // lookup outcome for `C=CCN(CC=C)C(=O)C(Cl)Cl`
## Result inactive

## Task // lookup outcome for `Nc1ccc(Cl)c(Cl)c1`
## Result inactive

## Task // lookup outcome for `CC(C)Oc1cc(-n2nc(C(C)(C)C)oc2=O)c(Cl)cc1Cl`
## Result inactive

## Task // lookup outcome for `C#C[C@]1(O)CC[C@H]2[C@@H]3CCC4=CC(=O)CC[C@]4(C)[C@H]3CC[C@@]21C`
## Result inactive

## Task // lookup outcome for `OCC(O)CO`
## Result inactive

----------
# TEST DETAILS: qHTS assay to identify small molecule agonists of the TGF-beta/Smad signaling pathway (AID 1346859); note: % is set by controls: 0 for no effect and ±100 for the full control effect
# EXPERIMENTAL CONTEXT: SBE-bla HEK293T, TGF-beta/Smad beta-lactamase reporter, 5 h; series mostly up to 76.8 µM
Inconclusive results are not listed. Calls of active or inactive are those of the source. Calls follow the shape of the dose curve; as a rule, active = well fitted activation curve with a large enough effect in the signal ratio in the repeat runs (not every such curve was filed as active); inconclusive = weak or mixed curves; inactive = flat fitted curve, though single readings scatter; the % refers to the signal ratio.
ASSAY METRIC: outcome

The examples below pair each entry with its known result.
{"COMPOUND": "c1ccc(NNc2ccccc2)cc1", "ASSAY METRIC": "outcome", "RESULT": "inactive"}
{"COMPOUND": "c1ccc(N=Nc2ccccc2)cc1", "ASSAY METRIC": "outcome", "RESULT": "inactive"}
{"COMPOUND": "O=C(CCl)c1ccccc1", "ASSAY METRIC": "outcome", "RESULT": "inactive"}
{"COMPOUND": "N#CCCCl", "ASSAY METRIC": "outcome", "RESULT": "inactive"}
{"COMPOUND": "CCCCOCCOP(=O)(OCCOCCCC)OCCOCCCC", "ASSAY METRIC": "outcome", "RESULT": "inactive"}

## Task // lookup outcome for CCCCC(CC)COC(=O)Cl (stereo not drawn)
## Result inactive

## Task // lookup outcome for `O=P(Oc1ccccc1)(Oc1ccccc1)Oc1ccccc1`
## Result inactive

## Task // lookup outcome for `Oc1cc(Cl)ccc1Cl`
## Result inactive

----------
# TEST SYSTEM: Thyrotropin receptor (Homo sapiens) (UniProt P16473)
# TEST DETAILS: qHTS assay to identify small molecule agonists of the thyroid stimulating hormone receptor (TSHR) signaling pathway (AID 1224843); note: nearly all actives have a fitted effect of over 45% in size
# EXPERIMENTAL CONTEXT: TSHR-HEK293 cells, cAMP HTRF, agonist mode, 30 min; series mostly up to 92.4 µM
Results filed as inconclusive are left out. The source made the active and inactive calls. The call rests on the fitted dose curve.
Write down one outcome, taken from class 1 = active, class 0 = inactive

## Task // param item: `C1=Cc2cccc3cccc1c23` ; yields the recorded call
## Result class 0

## Task // param item: c1cc(OCC2CO2)ccc1Cc1ccc(OCC2CO2)cc1 (stereo not given) ; yields the recorded call
## Result class 0

## Task // param item: `CCOC(=S)S` ; yields the recorded call
## Result class 0

## Task // param item: `O=C(CCl)c1ccccc1` ; yields the recorded call
## Result class 1
